# Test system: Escherichia coli
# procedure.text: Antibacterial activity against Escherichia coli
# Type: functional
measured.metric: MIC (µg/mL)

CCn1cc(C(=O)O)c(=O)c2cc3c(cc21)OCO3 [OXOLINIC ACID] :: 1
c1ccc(-c2ccccn2)nc1 [DIPYRIDYL] :: 256
CCCN1CCN(c2cc3c(cc2F)c(=O)c(C(=O)O)cn3CC)CC1 :: 4

1: CCN1CCN(c2cc3c(cc2F)c(=O)c(C(=O)O)cn3C2CC2)CC1 [ENROFLOXACIN]
2: c1cnc2c(c1)ccc1cccnc12 [PHENANTHROLINE]
MIC comparison. Which is larger, 1 or 2 ? Your answer should be the label attached to the chosen record.
2
(2: 32 µg/mL, 1: 1 µg/mL)
